// provenance: patent US9932341B2

// values below are reported pIC50
# target_or_system: PI3Kδ (p110δ/p85α) (Homo sapiens (Human), UniProt O00329)
# Sequence (O00329 whole entry): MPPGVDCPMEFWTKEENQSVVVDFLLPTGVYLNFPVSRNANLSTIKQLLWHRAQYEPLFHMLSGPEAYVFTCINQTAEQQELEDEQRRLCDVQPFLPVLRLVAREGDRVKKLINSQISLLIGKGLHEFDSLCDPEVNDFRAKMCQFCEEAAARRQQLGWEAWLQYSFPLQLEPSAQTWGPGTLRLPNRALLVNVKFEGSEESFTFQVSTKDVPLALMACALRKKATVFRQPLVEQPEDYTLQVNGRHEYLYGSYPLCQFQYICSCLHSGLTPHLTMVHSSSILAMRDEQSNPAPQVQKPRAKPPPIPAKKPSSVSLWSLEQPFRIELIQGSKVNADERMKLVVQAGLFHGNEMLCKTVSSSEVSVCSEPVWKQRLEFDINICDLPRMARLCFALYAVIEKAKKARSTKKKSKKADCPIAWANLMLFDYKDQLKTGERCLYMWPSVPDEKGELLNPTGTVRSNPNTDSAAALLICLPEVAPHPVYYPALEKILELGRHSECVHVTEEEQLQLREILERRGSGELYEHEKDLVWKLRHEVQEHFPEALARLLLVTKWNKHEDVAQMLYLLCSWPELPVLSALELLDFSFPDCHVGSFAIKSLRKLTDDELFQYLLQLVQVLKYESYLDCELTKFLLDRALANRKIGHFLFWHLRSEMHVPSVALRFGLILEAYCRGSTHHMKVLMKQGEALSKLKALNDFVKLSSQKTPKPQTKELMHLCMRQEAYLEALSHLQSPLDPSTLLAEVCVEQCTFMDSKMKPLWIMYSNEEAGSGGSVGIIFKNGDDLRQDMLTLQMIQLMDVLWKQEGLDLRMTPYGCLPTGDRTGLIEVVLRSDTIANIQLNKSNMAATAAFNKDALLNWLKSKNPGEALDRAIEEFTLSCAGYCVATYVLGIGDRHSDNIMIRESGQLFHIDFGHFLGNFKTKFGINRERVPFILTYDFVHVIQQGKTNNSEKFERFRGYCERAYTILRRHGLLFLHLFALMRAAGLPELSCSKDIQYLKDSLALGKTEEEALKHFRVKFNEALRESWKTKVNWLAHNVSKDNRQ
# Sequence (P27986 whole entry partner): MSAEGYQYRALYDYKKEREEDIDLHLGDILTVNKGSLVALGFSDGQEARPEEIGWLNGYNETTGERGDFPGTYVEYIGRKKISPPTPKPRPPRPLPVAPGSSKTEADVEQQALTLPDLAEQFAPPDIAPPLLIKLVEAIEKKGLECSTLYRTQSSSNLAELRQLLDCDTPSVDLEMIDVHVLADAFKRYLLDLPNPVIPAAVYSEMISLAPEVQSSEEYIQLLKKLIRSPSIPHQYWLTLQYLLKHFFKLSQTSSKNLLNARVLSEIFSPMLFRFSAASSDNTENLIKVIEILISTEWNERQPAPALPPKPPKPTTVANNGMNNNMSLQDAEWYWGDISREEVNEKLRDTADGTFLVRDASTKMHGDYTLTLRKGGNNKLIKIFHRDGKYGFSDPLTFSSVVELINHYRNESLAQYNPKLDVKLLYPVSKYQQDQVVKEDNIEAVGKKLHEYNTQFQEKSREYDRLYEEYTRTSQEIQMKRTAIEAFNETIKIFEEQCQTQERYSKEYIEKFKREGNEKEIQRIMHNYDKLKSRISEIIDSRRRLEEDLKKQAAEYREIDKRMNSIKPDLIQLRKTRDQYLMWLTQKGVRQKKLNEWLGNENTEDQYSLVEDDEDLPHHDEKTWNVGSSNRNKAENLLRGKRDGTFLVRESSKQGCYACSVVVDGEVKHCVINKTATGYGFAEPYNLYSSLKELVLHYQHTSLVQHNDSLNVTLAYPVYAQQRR
# protocol_description: PI3Kδ Scintillation Proximity Assay (Example A3)
# conditions_used: 20 μM ATP, 20 μM PIP2, 4 nM PI3Kδ, read-out: PI3Kδ SPA IC50
pIC50: −log10 of the molar value.

{"compound": "CCC(C)N1CC(c2c(C)c(Cl)cc(C(C)n3nc(C)c4c(N)ncnc43)c2OC)C1 (stereo not shown)", "value_measured": "> 8.00"}
{"compound": "COc1c(C(C)n2nc(C)c3c(N)ncnc32)cc(Cl)c(C#N)c1C1CN(C)C1 (single isomer, unassigned)", "value_measured": "> 8.00"}
{"compound": "COc1c(C(C)n2nc(C)c3c(N)ncnc32)cc(Cl)c(C)c1-c1ccc(C(=O)N(C)C)nc1 (stereo not shown) [Example 11, bis(trifluoroacetate)]", "value_measured": "> 8.00"}
{"compound": "COc1c(C(C)n2nc(C)c3c(N)ncnc32)cc(Cl)c(C#N)c1C1CN(C(N)=O)C1 (single isomer, unassigned)", "value_measured": "> 8.00"}
{"compound": "CCOc1c(C(C)n2nc(C)c3c(N)ncnc32)cc(Cl)c(F)c1C1CN(C[C@H](C)O)C1 (stereo partly shown)", "value_measured": "> 8.00"}
{"compound": "CCOc1c(C(C)n2nc(C)c3c(N)ncnc32)cc(Cl)c(C#N)c1C1CN(CCO)C1 (single isomer, unassigned)", "value_measured": "> 8.00"}
{"compound": "CCOc1c(C(C)n2nc(C)c3c(N)ncnc32)cc(C)c(C#N)c1C1CN(C(=O)C(C)(C)O)C1 (single isomer, unassigned) [322 (1st peak)]", "value_measured": "> 8.00"}
{"compound": "COc1c(C(C)n2nc(C)c3c(N)ncnc32)cc(Cl)c(C)c1C1CN(C[C@@H](O)C(F)(F)F)C1 (single isomer, unassigned)", "value_measured": "> 8.00"}
{"compound": "CCOc1c(C(C)n2nc(C)c3c(N)ncnc32)cc(Cl)c(C#N)c1N1CC(OC)C1 (racemic)", "value_measured": "> 8.00"}
{"compound": "CCOc1c(C(C)n2nc(C)c3c(N)ncnc32)cc(Cl)c(C)c1-c1ccc(C(=O)N(C)C)nc1 (stereo not shown) [Example 14, bis(trifluoroacetate)]", "value_measured": "> 8.00"}

Task item: Please tell me: pIC50 of CCOc1c(C(C)n2nc(C)c3c(N)ncnc32)cc(Cl)c(C)c1-c1ccc(C(=O)N(C)C)cn1 (stereo not shown) [Example 208, bis(trifluoroacetate)] , system PI3Kδ (p110δ/p85α) (Homo sapiens (Human), UniProt O00329)?
Reply: > 8.00

Task item: pIC50 of COc1c(C(C)n2nc(C)c3c(N)ncnc32)cc(Cl)c(C)c1-c1cnc(N)nc1 (single isomer, unassigned) on PI3Kδ (p110δ/p85α) (Homo sapiens (Human), UniProt O00329)?
Reply: > 8.00

Task item: Record COc1c(C(C)n2nc(C)c3c(N)ncnc32)cc(C)c(C#N)c1C1CN(C[C@H](C)O)C1 (single isomer, unassigned) : what is its pIC50 with PI3Kδ (p110δ/p85α) (Homo sapiens (Human), UniProt O00329)?
Reply: > 8.00

* * *

# target_or_system: PI3Kδ (p110δ/p85α) (Homo sapiens (Human))
# protocol_description: PI3Kδ Scintillation Proximity Assay (Example A3)
# conditions_used: 20 μM ATP, 20 μM PIP2, 4 nM PI3Kδ, read-out: PI3Kδ SPA IC50
Counter-ions that a name gives are not always drawn.
quantity: IC50

Record excerpt, results attached:
{"compound": "COc1c(C(C)n2nc(C)c3c(N)ncnc32)cc(Cl)c(C#N)c1C1CN(C(=O)NC(C)(C)C)C1 (single isomer, unassigned)", "IC50": "< 10 nM"}
{"compound": "CCOc1c(C(C)n2nc(C)c3c(N)ncnc32)cc(Cl)c(C#N)c1-c1ccc(C(C)(C)O)nc1 (racemic)", "IC50": "< 10 nM"}

Task item: Give PI3Kδ (p110δ/p85α) (Homo sapiens (Human)) IC50 for COc1c(C(C)n2nc(C)c3c(N)ncnc32)cc(Cl)c(C)c1-c1ccc(C(=O)N(C)C)c(F)c1 (single isomer, unassigned) [Example 21, trifluoroacetate]
Reply: < 10 nM
